# experimental_system: ~100 representative kinases (Homo sapiens)
# Construct: Recombinant protein kinase domains with a concentration of 2 μM
# Sequence (P34947 whole entry, the tested form may be a part): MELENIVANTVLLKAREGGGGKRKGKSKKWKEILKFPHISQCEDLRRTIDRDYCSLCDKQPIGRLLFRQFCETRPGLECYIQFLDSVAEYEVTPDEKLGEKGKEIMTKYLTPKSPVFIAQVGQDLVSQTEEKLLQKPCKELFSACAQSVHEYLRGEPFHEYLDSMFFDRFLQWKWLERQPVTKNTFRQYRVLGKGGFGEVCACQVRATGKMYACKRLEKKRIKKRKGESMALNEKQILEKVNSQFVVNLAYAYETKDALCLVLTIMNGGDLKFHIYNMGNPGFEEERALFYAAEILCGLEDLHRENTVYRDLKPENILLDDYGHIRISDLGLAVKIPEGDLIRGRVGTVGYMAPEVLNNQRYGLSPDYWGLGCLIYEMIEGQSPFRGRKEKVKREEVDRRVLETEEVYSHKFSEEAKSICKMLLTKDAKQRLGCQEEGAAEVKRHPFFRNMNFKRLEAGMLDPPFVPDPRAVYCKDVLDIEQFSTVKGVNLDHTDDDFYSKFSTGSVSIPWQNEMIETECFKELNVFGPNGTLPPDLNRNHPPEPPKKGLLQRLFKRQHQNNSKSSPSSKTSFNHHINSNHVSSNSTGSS
# procedure_details: DSF 100 kinase selectivity screen;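 further: compound tested at 20 µM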
# Type: binding
# condition_summary: protein GPRK5; average of three replicates
For each of the molecules below, state its dTm.
Write your answer as a measured quantity: the number, then the unit.

Measured dTm of CC(C)(C)c1cc(NC(=O)Nc2cccc(-c3c[nH]c4ncnc(N5CCOCC5)c34)c2)n(-c2ccc3ncccc3c2)n1 : 0.98 K

Measured dTm of C[C@@H]1CN(c2cc(-c3n[nH]c4ccc(OC5(C)CC5)cc34)ncn2)C[C@H](C)O1 : 0.07 K

Measured dTm of COc1cc(C(=O)N2CCOCC2)c(F)cc1Nc1nc(N(C)C)c2c(Cl)c[nH]c2n1 : 0.46 K

Measured dTm of CN[C@@H]1C[C@H]2O[C@@](C)([C@@H]1OC)n1c3ccccc3c3c4c(c5c6ccccc6n2c5c31)C(=O)NC4 : 7.02 K

Measured dTm of O=C(Nc1cc(F)cc(Br)c1)C1(C(=O)Nc2cccc(-c3c[nH]c4ncnc(N5CCOCC5)c34)c2)CC1 : 0.40 K

Measured dTm of CC(=O)N1CCN(c2nc(Cl)nc3[nH]cc(-c4cccc(NC(=O)Nc5cc(C(C)(C)C)nn5-c5ccc(C)cc5)c4)c23)CC1 : -1.15 K

Measured dTm of COc1cc(S(C)(=O)=O)ccc1Nc1nc(N(C)C)c2c(Cl)c[nH]c2n1 : 1.16 K

Measured dTm of O=C(Nc1cccc(-c2c[nH]c3ncnc(N4CCOCC4)c23)c1)C1(C(=O)Nc2ccc(F)c(F)c2)CC1 : 0.75 K

Measured dTm of O=C(Nc1ccc(F)cc1)C1(C(=O)Nc2cccc(-c3c[nH]c4ncnc(N5CCOCC5)c34)c2)CC1 : -0.82 K

Measured dTm of CCc1ccc(NC(=O)C2(C(=O)Nc3cccc(-c4c[nH]c5ncnc(N6CCOCC6)c45)c3)CC2)cc1 : 1.27 K

Measured dTm of O=C(Nc1cccc(-c2c[nH]c3ncnc(N4CCOCC4)c23)c1)C1(C(=O)Nc2ccc(F)cc2F)CC1 : -0.45 K

Measured dTm of CC(C)(C)c1cccc(NC(=O)C2(C(=O)Nc3cccc(-c4c[nH]c5ncnc(N6CCOCC6)c45)c3)CC2)c1 : -0.26 K

Measured dTm of Cc1cc(F)ccc1NC(=O)C1(C(=O)Nc2cccc(-c3c[nH]c4ncnc(N5CCOCC5)c34)c2)CC1 : 0.16 K

Measured dTm of O=C(Nc1cccc(-c2c[nH]c3ncnc(N4CCOCC4)c23)c1)C1(C(=O)Nc2cc(Br)c(F)cc2F)CC1 : 0.32 K

Measured dTm of O=C(Nc1cccc(-c2c[nH]c3ncnc(N4CCOCC4)c23)c1)c1cccn(-c2ccc(F)cc2)c1=O : 0.55 K

Measured dTm of O=C(Nc1ccc(Cl)cc1)C1(C(=O)Nc2cccc(-c3c[nH]c4ncnc(N5CCOCC5)c34)c2)CC1 : 1.38 K

Measured dTm of O=C(Nc1cccc(-c2c[nH]c3ncnc(N4CCOCC4)c23)c1)C1(C(=O)Nc2ccc(F)c(Cl)c2)CC1 : 0.43 K

Measured dTm of COc1cc(NC(=O)C2(C(=O)Nc3cccc(-c4c[nH]c5ncnc(N6CCOCC6)c45)c3)CC2)ccc1F : 0.34 K

Measured dTm of O=C(Nc1cccc(-c2c[nH]c3ncnc(N4CCOCC4)c23)c1)C1(C(=O)Nc2ccc(F)c(Br)c2)CC1 : 0.28 K

Measured dTm of Cc1ccc(C(=O)Nc2ccc(CN3CCN(C)CC3)c(C(F)(F)F)c2)cc1C#Cc1c[nH]c2ncnc(N3CCOCC3)c12 : 0.19 K

Measured dTm of CNC(=O)c1cc(Oc2ccc(NC(=O)Nc3cc(C(C)(C)C)nn3-c3ccc4ncccc4c3)c(F)c2)ccn1 [Rebastinib, reference compound] : 0.59 K

Measured dTm of Cc1ccc(-n2nc(C(C)(C)C)cc2NC(=O)Nc2cccc(-c3c[nH]c4nc(Cl)nc(N5CCOCC5)c34)c2)cc1 : -3.24 K

Measured dTm of Cc1cc(NC(=O)C2(C(=O)Nc3ccc(F)cc3)CC2)cc(-c2c[nH]c3ncnc(N4CCOCC4)c23)c1 : 0.0071 K

Measured dTm of Cc1ccc(C(=O)Nc2ccc(CN3CCN(C)CC3)c(C(F)(F)F)c2)cc1C#Cc1cnc2[nH]ncc2c1 [GZD-824, reference compound] : 0.29 K

Measured dTm of O=C(Nc1ccccc1)C1(C(=O)Nc2cccc(-c3c[nH]c4ncnc(N5CCOCC5)c34)c2)CC1 : 0.86 K

Measured dTm of COc1cc2c(Oc3ccc(NC(=O)C4(C(=O)Nc5ccc(F)cc5)CC4)cc3F)ccnc2cc1OCCCN1CCOCC1 [Foretinib, reference compound] : 0.60 K

Measured dTm of Cn1cc(-c2c[nH]c3ncnc(N4CCOCC4)c23)cc1C#N : 0.56 K

Measured dTm of Cc1ccc(-n2nc(C(C)(C)C)cc2NC(=O)Nc2cccc(-c3c[nH]c4ncnc(N5CCOCC5)c34)c2)cc1 : 0.00 K

This collection of values is drawn from paper PMC12136037.
